Values compiled from patent US4985447A.

target: 5-lipoxygenase (Rattus norvegicus, UniProt P12527)
Construct: endogenous in cells; host or cells: RBL-1 cells (rat basophilic leukemia)
assay.summary: Inhibition of 5-lipoxygenase (production of 5-HETE in RBL-1 cells)
Assay type: cell-based, rat (RBL-1, rat basophilic leukemia cells)
study.conditions: 10^-6 M
outcome.measure: inhibition at 1 µM (%)
Only the number, expressed in %, is required.

compound: CCCCC(C1=C(C)C(=O)C(C)=C(C)C1=O)c1cccnc1 (stereo not drawn)
inhibition at 1 µM [%]: 86

compound: CC1=C(C)C(=O)C(C(c2ccccc2)c2cccnc2)=C(C)C1=O (stereo not drawn)
inhibition at 1 µM [%]: 85

compound: CC1=C(C)C(=O)C(C(CCCCC(=O)O)c2cccnc2)=C(C)C1=O (stereo not drawn)
inhibition at 1 µM [%]: 90

compound: CC(=Cc1ccc(C(C2=C(C)C(=O)C(C)=C(C)C2=O)c2cccnc2)cc1)C(=O)O (stereo not drawn)
inhibition at 1 µM [%]: 73

compound: CC1=C(C)C(=O)C(C(C)c2cccnc2)=C(C)C1=O (stereo not drawn)
inhibition at 1 µM [%]: 84

Q: State its inhibition at 1 µM for this compound: CC1=C(C)C(=O)C(C(CCCCO)c2cccnc2)=C(C)C1=O (stereo not drawn)
Result: 88

Q: Query inhibition at 1 µM for CC(=O)OCCCCC(C1=C(C)C(=O)C(C)=C(C)C1=O)c1cccnc1 (stereo not drawn)
Result: 90

Q: Query inhibition at 1 µM for CCC(C1=C(C)C(=O)C(C)=C(C)C1=O)c1cccnc1 (stereo not drawn)
Result: 91

Q: Look up inhibition at 1 µM of `CC1=C(C)C(=O)C(Cc2cccnc2)=C(C)C1=O` and report it.
Result: 92

* * *

target: Thromboxane A2 (TXA2) synthetase (Equus caballus)
Sequence (A0A9L0T8T9 2-534): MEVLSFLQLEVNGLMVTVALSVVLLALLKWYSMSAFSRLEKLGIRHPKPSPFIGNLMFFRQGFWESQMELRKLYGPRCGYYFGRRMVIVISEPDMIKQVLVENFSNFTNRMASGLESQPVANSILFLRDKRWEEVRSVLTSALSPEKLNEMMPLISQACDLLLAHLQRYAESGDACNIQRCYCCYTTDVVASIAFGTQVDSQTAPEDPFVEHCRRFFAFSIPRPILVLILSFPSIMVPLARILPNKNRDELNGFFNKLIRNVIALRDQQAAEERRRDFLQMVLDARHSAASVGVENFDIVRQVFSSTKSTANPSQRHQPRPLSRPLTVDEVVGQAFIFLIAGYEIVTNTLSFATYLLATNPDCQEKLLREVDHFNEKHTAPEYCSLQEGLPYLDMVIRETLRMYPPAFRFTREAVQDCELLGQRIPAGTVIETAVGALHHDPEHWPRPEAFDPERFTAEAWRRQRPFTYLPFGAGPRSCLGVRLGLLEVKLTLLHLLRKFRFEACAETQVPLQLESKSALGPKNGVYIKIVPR
assay.summary: Inhibition of Thromboxane A2 (TXA2) synthetase (horse platelet microsome)
Format: biochemical
study.conditions: 10^-7 M; read-out: Inhibition of Thromboxane A2 (TXA2) synthetase
Protocol: Inhibition of Thromboxane A2 (TXA2) synthetase As a preparation of TXA2 synthetase, horse platelet microsome treated with indomethacin (indomethacin-treated horse platelet microsome: IPM) according to the method of Needleman et al. (Science 193 163, 1979) was used. […] The rate of inhibition (%) of TXA2 synthetase was determined from the difference in TXB2 productivity between the untreated group and the treated group. […]
Use inhibition at 0.1 µM to assign classes; range list: LOW = under 10%, MEDIUM = from 10% up to 20%, HIGH = 20% and over

Solved cases below.
compound: CC1=C(C)C(=O)C(C(CCCCCC(=O)O)c2cccnc2)=C(C)C1=O (centres unmarked)
answer.label: HIGH

compound: CCC(C1=C(C)C(=O)C(C)=C(C)C1=O)c1cccnc1 (centres unmarked)
answer.label: MEDIUM

compound: CCCCCCC(C1=C(C)C(=O)C(C)=C(C)C1=O)c1cccnc1 (centres unmarked)
answer.label: LOW

compound: CC(=O)OCCCCCC(C1=C(C)C(=O)C(C)=C(C)C1=O)c1cccnc1 (centres unmarked)
answer.label: HIGH

compound: CC(=O)OCCCCC(C1=C(C)C(=O)C(C)=C(C)C1=O)c1cccnc1 (centres unmarked)
answer.label: MEDIUM

Q: Classify this compound: CC1=C(C)C(=O)C(C(CCCCCO)c2cccnc2)=C(C)C1=O (centres unmarked)
Result: MEDIUM

Q: Note: place this compound into its band. Item: `CC1=C(C)C(=O)C(Cc2cccnc2)=C(C)C1=O`
Result: HIGH

* * *

assay.summary: Toxicological study in the rat
Assay type: in vivo, rat (male Wistar)
study.conditions: 300 mg/kg orally, 2 weeks, mean
outcome.measure: Thymus weight (g)
Entry rule: numbers only, all in g.

Q: Please report Thymus weight for the following compound: `CC1=C(C)C(=O)C(Cc2cccnc2)=C(C)C1=O`
Result: 0.447

* * *

target: 5-lipoxygenase (Rattus norvegicus)
Construct: endogenous in cells; host or cells: RBL-1 cells (rat basophilic leukemia)
Sequence (P12527 1-673): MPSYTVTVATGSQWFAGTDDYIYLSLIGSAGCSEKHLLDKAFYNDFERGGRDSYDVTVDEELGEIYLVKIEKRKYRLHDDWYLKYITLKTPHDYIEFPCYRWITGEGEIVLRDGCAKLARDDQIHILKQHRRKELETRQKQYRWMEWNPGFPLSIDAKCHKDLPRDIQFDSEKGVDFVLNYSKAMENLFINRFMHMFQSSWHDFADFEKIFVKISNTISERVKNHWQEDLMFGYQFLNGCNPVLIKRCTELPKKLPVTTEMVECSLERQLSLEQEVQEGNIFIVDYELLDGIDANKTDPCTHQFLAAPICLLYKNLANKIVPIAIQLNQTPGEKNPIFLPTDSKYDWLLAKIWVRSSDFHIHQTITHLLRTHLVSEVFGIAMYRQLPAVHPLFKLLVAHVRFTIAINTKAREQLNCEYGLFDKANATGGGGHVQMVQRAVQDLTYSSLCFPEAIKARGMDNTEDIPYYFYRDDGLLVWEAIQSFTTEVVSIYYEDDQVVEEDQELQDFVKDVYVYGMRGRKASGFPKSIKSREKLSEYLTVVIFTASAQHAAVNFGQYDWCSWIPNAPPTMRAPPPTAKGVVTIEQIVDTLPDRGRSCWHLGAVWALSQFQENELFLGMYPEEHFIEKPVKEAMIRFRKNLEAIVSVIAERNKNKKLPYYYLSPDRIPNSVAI
assay.summary: Inhibition of 5-lipoxygenase (production of 5-HETE in RBL-1 cells)
Format: cell-based, rat (RBL-1, rat basophilic leukemia cells)
study.conditions: 10^-7 M
outcome.measure: inhibition at 0.1 µM
In your response, put the unit directly after the numeric value.

Q: Give the reported value of inhibition at 0.1 µM for this record: CC1=C(C)C(=O)C(C(c2ccccc2)c2cccnc2)=C(C)C1=O (stereo not shown)
Result: 60%

* * *

Some molecules, each annotated with its measured inhibition at 1 µM.
target: 5-lipoxygenase (Rattus norvegicus)
Construct: endogenous in cells; host or cells: RBL-1 cells (rat basophilic leukemia)
Sequence (P12527 1-673): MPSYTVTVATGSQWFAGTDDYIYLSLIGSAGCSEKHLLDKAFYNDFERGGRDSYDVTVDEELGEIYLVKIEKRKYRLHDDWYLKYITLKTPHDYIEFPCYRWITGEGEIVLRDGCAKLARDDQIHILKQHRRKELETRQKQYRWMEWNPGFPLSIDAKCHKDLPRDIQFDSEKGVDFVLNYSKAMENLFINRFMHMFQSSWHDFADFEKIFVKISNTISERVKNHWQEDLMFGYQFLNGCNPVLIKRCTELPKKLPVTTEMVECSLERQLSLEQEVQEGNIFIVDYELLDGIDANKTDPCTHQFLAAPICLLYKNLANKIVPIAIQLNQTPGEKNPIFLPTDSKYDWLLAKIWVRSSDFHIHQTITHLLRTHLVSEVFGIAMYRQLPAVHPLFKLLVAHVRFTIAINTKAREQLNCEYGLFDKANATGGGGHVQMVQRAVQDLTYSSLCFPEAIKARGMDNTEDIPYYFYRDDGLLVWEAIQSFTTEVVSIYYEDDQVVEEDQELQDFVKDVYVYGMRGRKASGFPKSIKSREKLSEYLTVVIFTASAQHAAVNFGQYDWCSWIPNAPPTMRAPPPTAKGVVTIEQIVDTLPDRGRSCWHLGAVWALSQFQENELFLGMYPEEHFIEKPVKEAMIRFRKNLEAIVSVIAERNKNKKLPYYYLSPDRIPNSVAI
assay.summary: Inhibition of 5-lipoxygenase (production of 5-HETE in RBL-1 cells)
Format: cell-based, rat (RBL-1, rat basophilic leukemia cells)
study.conditions: 10^-6 M
Express your answer in %, writing the number without its unit.

molecule: CC(=O)OCCCCCC(C1=C(C)C(=O)C(C)=C(C)C1=O)c1cccnc1 (stereo not shown) [compound 12]
target: 5-lipoxygenase (Rattus norvegicus)
reported.value: 91
//
molecule: CC1=C(C)C(=O)C(C(CCCCCC(=O)O)c2cccnc2)=C(C)C1=O (stereo not shown) [Compound No. 13]
target: 5-lipoxygenase (Rattus norvegicus)
reported.value: 64
//
molecule: CCCCCCC(C1=C(C)C(=O)C(C)=C(C)C1=O)c1cccnc1 (stereo not shown) [Compound No. 16]
target: 5-lipoxygenase (Rattus norvegicus)
reported.value: 96

Q: Check the records and state inhibition at 1 µM for CC1=C(C)C(=O)C(C(CCCCCO)c2cccnc2)=C(C)C1=O (stereo not shown) [compound 11]
Result: 88

* * *

target: 5-lipoxygenase (Rattus norvegicus)
Construct: endogenous in cells; host or cells: RBL-1 cells (rat basophilic leukemia)
assay.summary: Inhibition of 5-lipoxygenase (production of 5-HETE in RBL-1 cells)
Format: cell-based, rat (RBL-1, rat basophilic leukemia cells)
study.conditions: 10^-7 M
outcome.measure: inhibition at 0.1 µM (%)
Quick reminder: number only, in %, skip the unit.

compound: CC1=C(C)C(=O)C(C(CCCCCC(=O)O)c2cccnc2)=C(C)C1=O (stereo not drawn) [Compound No. 13]
outcome.measure: inhibition at 0.1 µM
output.unit: %
reported.value: 16
--
compound: CC(=O)OCCCCC(C1=C(C)C(=O)C(C)=C(C)C1=O)c1cccnc1 (stereo not drawn) [compound 9]
outcome.measure: inhibition at 0.1 µM
output.unit: %
reported.value: 62
--
compound: CC1=C(C)C(=O)C(C(C)c2cccnc2)=C(C)C1=O (stereo not drawn) [Compound No. 1]
outcome.measure: inhibition at 0.1 µM
output.unit: %
reported.value: 46
--
compound: CC1=C(C)C(=O)C(C(CCCCC(=O)O)c2cccnc2)=C(C)C1=O (stereo not drawn) [compound 10]
outcome.measure: inhibition at 0.1 µM
output.unit: %
reported.value: 52
--
compound: CC1=C(C)C(=O)C(Cc2cccnc2)=C(C)C1=O [Compound No. 14]
outcome.measure: inhibition at 0.1 µM
output.unit: %
reported.value: 80
--
compound: CC(=Cc1ccc(C(C2=C(C)C(=O)C(C)=C(C)C2=O)c2cccnc2)cc1)C(=O)O (stereo not drawn) [Compound No. 5]
outcome.measure: inhibition at 0.1 µM
output.unit: %
reported.value: 28

Q: Report its inhibition at 0.1 µM with 5-lipoxygenase (Rattus norvegicus) as the test system: CCCCC(C1=C(C)C(=O)C(C)=C(C)C1=O)c1cccnc1 (stereo not drawn) [Compound No. 7]
Result: 35

Q: Send back 5-lipoxygenase (Rattus norvegicus) inhibition at 0.1 µM of CCC(C1=C(C)C(=O)C(C)=C(C)C1=O)c1cccnc1 (stereo not drawn) [compound 15] only.
Result: 57

Q: Give 5-lipoxygenase (Rattus norvegicus) inhibition at 0.1 µM for the following compound: CC1=C(C)C(=O)C(C(CCCCO)c2cccnc2)=C(C)C1=O (stereo not drawn) [compound 8]
Result: 63
